Target: Cytochrome P450 2D6 (Homo sapiens) (UniProt P10635)
Sequence (P10635 whole entry, looked up): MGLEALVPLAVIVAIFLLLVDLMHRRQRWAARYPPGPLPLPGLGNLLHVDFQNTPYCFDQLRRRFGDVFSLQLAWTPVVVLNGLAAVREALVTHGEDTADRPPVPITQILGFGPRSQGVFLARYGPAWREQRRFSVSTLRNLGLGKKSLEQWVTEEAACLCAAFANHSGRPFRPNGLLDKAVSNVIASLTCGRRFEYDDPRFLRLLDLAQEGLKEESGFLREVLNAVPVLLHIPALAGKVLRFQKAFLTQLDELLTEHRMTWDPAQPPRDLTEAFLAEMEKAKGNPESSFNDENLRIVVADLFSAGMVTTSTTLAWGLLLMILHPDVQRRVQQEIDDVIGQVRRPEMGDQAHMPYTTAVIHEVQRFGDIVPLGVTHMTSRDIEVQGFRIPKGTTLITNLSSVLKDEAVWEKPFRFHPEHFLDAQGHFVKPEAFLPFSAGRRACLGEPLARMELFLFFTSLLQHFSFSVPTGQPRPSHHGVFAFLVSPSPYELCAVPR
Assay: qHTS Assay for Inhibitors and Substrates of Cytochrome P450 2D6 (AID 891); further: potency means the concentration at half of the fitted maximal effect; nearly all actives have a fitted effect of over 60% in size
Details: recombinant CYP2D6, luciferin-ME EGE luminescence; series mostly up to 57.1 µM
Records with an inconclusive call do not appear. Activity calls are given as the source filed them. The call rests on the fitted dose curve; in most records, active means well fitted inhibition curve with a large enough effect; inconclusive means small, poorly fitted or top-dose-only effect; inactive means no such curve, though single readings can be large or run the other way.
measured_endpoint: Potency

Would you please look over these solved cases?
CCCCN(CCCC)CCC(O)c1cc2c(Cl)cc(Cl)cc2c2cc(C(F)(F)F)ccc12 (centres undefined)    3.98 µM (active)
CC(C)[N+](C)(CCC(C(N)=O)(c1ccccc1)c1ccccc1)C(C)C    3.98 µM (active)

Query: Query Potency for CC(=O)c1ccc2c(c1)N(CCCN(C)C)c1ccccc1S2
Response: 2.51 µM (active)
